quantity: AC50

Ask: Report the value of AC50 obtained on Alpha-2B adrenergic receptor (Homo sapiens, UniProt P18089) for CCOC(=O)C1=C[C@]2(CC)CCCN3CCc4c(n1c1ccccc41)[C@@H]32 [VINPOCETINE] .
Sequence (P18089 whole entry): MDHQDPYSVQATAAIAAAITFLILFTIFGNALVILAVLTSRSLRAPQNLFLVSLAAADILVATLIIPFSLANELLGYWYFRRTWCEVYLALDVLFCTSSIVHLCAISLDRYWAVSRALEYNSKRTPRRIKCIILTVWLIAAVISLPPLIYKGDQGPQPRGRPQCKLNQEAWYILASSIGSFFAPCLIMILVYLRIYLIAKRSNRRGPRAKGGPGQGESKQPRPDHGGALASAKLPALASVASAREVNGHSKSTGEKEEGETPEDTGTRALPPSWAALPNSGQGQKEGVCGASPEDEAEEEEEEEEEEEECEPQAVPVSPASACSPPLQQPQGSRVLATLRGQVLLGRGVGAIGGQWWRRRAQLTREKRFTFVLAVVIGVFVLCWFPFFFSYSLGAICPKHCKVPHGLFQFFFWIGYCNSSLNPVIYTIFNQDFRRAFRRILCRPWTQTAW
Result: 2.4 µM

Ask: Report the value of AC50 obtained on Alpha-2B adrenergic receptor (Homo sapiens, UniProt P18089) for CC1OC2(CS1)CN1CCC2CC1 (stereo not drawn) [CEVIMELINE] .
Result: > 30 µM

Ask: Report the value of AC50 obtained on Alpha-2B adrenergic receptor (Homo sapiens, UniProt P18089) for O=C1CN(/N=C/c2ccc(-c3ccc([N+](=O)[O-])cc3)o2)C(O)=N1 [DANTROLENE] .
Result: > 10 µM

Ask: Report the value of AC50 obtained on Alpha-2B adrenergic receptor (Homo sapiens, UniProt P18089) for CC(C)COCC(CN(Cc1ccccc1)c1ccccc1)N1CCCC1 (stereo not drawn) [BEPRIDIL] .
Result: 6.2 µM

Ask: Report the value of AC50 obtained on Alpha-2B adrenergic receptor (Homo sapiens, UniProt P18089) for CCN(CC)C(=O)Nc1ccc(OCC(O)CNC(C)(C)C)c(C(C)=O)c1 (stereo not drawn) [CELIPROLOL] .
Result: > 30 µM

Ask: Report the value of AC50 obtained on Alpha-2B adrenergic receptor (Homo sapiens, UniProt P18089) for CC(C)(C)C(=O)OCC(=O)[C@H]1CC[C@H]2[C@@H]3CCC4=CC(=O)CC[C@]4(C)[C@H]3CC[C@]12C [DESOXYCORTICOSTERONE PIVALATE] .
Result: > 10 µM

Ask: Report the value of AC50 obtained on Alpha-2B adrenergic receptor (Homo sapiens, UniProt P18089) for CC(C)[C@H](N)C(=O)OCC(CO)OCn1cnc2c(=O)nc(N)[nH]c21 (stereo partly drawn) [VALGANCICLOVIR] .
Result: > 30 µM

Ask: Report the value of AC50 obtained on Alpha-2B adrenergic receptor (Homo sapiens, UniProt P18089) for C=C[C@H]1C[N@@]2CC[C@H]1C[C@@H]2[C@@H](O)c1ccnc2ccc(OC)cc12 [QUINIDINE] .
Result: 6.5 µM

Ask: Report the value of AC50 obtained on Alpha-2B adrenergic receptor (Homo sapiens, UniProt P18089) for CC1(C)S[C@@H]2[C@H](NC(=O)[C@H](N)c3ccccc3)C(=O)N2[C@H]1C(=O)OCOC(=O)[C@@H]1N2C(=O)C[C@H]2S(=O)(=O)C1(C)C [SULTAMICILLIN] .
Result: > 30 µM

Ask: Report the value of AC50 obtained on Alpha-2B adrenergic receptor (Homo sapiens, UniProt P18089) for CCOC(=O)O[C@]1(C(=O)OCCl)CC[C@H]2[C@@H]3CCC4=CC(=O)C=C[C@]4(C)[C@H]3[C@@H](O)C[C@@]21C [LOTEPREDNOL ETABONATE] .
Result: > 30 µM

Ask: Report the value of AC50 obtained on Alpha-2B adrenergic receptor (Homo sapiens, UniProt P18089) for O=C(O)c1ccccc1Nc1cc(Cl)ccc1C(=O)O [LOBENZARIT] .
Result: > 30 µM

Ask: Report the value of AC50 obtained on Alpha-2B adrenergic receptor (Homo sapiens, UniProt P18089) for CC(=O)O[C@]1(C(C)=O)CC[C@H]2[C@@H]3C=C(C)C4=CC(=O)CC[C@@H]4[C@H]3CC[C@@]21C [NOMEGESTROL ACETATE] .
Result: > 30 µM

Ask: Report the value of AC50 obtained on Alpha-2B adrenergic receptor (Homo sapiens, UniProt P18089) for CC(=O)OCC(=O)[C@@]1(O)[C@H](C)C[C@H]2[C@@H]3CCC4=CC(=O)C=C[C@]4(C)[C@@]3(F)[C@@H](O)C[C@@]21C [DEXAMETHASONE ACETATE] .
Result: > 10 µM

Ask: Report the value of AC50 obtained on Alpha-2B adrenergic receptor (Homo sapiens, UniProt P18089) for C#C[C@]1(O)CC[C@H]2[C@@H]3CCC4=CC(=O)CC[C@@H]4[C@H]3C(=C)C[C@@]21CC [ETONOGESTREL] .
Result: > 30 µM

Ask: Report the value of AC50 obtained on Alpha-2B adrenergic receptor (Homo sapiens, UniProt P18089) for COCC1=C(C(=O)O)N2C(=O)[C@@H](NC(=O)/C(=N\OC)c3csc(N)n3)[C@H]2SC1 [CEFPODOXIME] .
Result: > 30 µM

Ask: Report the value of AC50 obtained on Alpha-2B adrenergic receptor (Homo sapiens, UniProt P18089) for OC1(c2ccc(Cl)cc2)c2ccccc2C2=NCCN21 (stereo not drawn) [MAZINDOL] .
Result: > 30 µM

Ask: Report the value of AC50 obtained on Alpha-2B adrenergic receptor (Homo sapiens, UniProt P18089) for COc1cc(N)c(Cl)cc1C(=O)NC1CCN(Cc2ccccc2)CC1 [CLEBOPRIDE] .
Result: 18 µM

Ask: Report the value of AC50 obtained on Alpha-2B adrenergic receptor (Homo sapiens, UniProt P18089) for C[C@@H](Oc1cc(-c2cnn(C3CCNCC3)c2)cnc1N)c1c(Cl)ccc(F)c1Cl [CRIZOTINIB] .
Result: > 30 µM

Ask: Report the value of AC50 obtained on Alpha-2B adrenergic receptor (Homo sapiens, UniProt P18089) for Cn1c(=O)cc(N2CCC[C@@H](N)C2)n(Cc2ccccc2C#N)c1=O [ALOGLIPTIN] .
Result: > 10 µM

Ask: Report the value of AC50 obtained on Alpha-2B adrenergic receptor (Homo sapiens, UniProt P18089) for CCC1(c2ccccc2)CCC(=O)NC1=O (stereo not drawn) [GLUTETHIMIDE] .
Result: > 10 µM

Ask: Report the value of AC50 obtained on Alpha-2B adrenergic receptor (Homo sapiens, UniProt P18089) for C[C@]12CC[C@@H]3c4ccc(O)cc4C[C@@H](CCCCCCCCC[S+]([O-])CCCC(F)(F)C(F)(F)F)[C@H]3[C@@H]1CC[C@@H]2O (stereo partly drawn) [FULVESTRANT] .
Result: > 30 µM

Ask: Report the value of AC50 obtained on Alpha-2B adrenergic receptor (Homo sapiens, UniProt P18089) for O=C1CN=C(c2ccccn2)c2cc(Br)ccc2N1 [BROMAZEPAM] .
Result: > 10 µM

Ask: Report the value of AC50 obtained on Alpha-2B adrenergic receptor (Homo sapiens, UniProt P18089) for CCN1CCCC1CNC(=O)c1cc(S(=O)(=O)CC)c(N)cc1OC (stereo not drawn) [AMISULPRIDE] .
Result: 1.5 µM
